# Test system: NCI-N87
# ASSAY_EXPLANATION: Proliferation-inhibiting effect on tumor cells (SRB or MTT assay)
# Format: cell-based
# MEASUREMENT_PARAMETERS: Homo sapiens, NCI-N87, 144 h, read-out: IC50 (nM) 2nd experiment
ENDPOINT_LABEL: IC50 (nM)

> print(dat)
                                   compound  test.system  endpoint.label  units.label  experimental.result
1  CC[C@@]1(O)C(=O)OCc2c1cc1n(c2=O)Cc2c-1nc1ccc(N)c3c1c2C(F)(F)CC3 [Compound 3]      NCI-N87            IC50           nM                  0.5
